All values here come from PubChem BioAssay (NCI).

Tested on: K-562 leukemia
TEST: NCI-60 one-dose screen, 48 h (100 = growth as untreated, 0 = no growth, -100 = all killed)
MEASUREMENT_PARAMETERS: 10 µM unless noted
Compounds without any hit were thinned out: in the full panel of roughly 83,000, 20% have a hit.
Exercise: state measured growth for each of the compounds provided.
Value expressed in %; do not type the unit.

QUERY: Quick check: growth of `Cc1ccc(C=C2C(=O)NC(=O)NC2=O)cc1` ?
RESULT: 86.1

QUERY: May I ask what growth has been recorded for `O=C1/C=C/[C@@H](O)[C@@H]2C[C@@H](O)C[C@H]2/C=C/CCC[C@@H](O)CCO1` ?
RESULT: 105

QUERY: Given the compound `COc1ccc(-c2n[nH]c(=O)c3nc(NC(=S)Nc4ccc(Oc5ccccc5)cc4)sc23)cc1` , what is its reported growth?
RESULT: 89.3

QUERY: Quick one: growth for N#Cc1cccc(C2C3=C(COC3=O)N(CCO)c3cc4c(cc32)OCO4)c1 (stereo not given) ?
RESULT: 9.87

QUERY: Give its growth value. Item: CCCCCN(CCCCC)CC(O)c1cc(C)c2ccc3cc(C(C)C)ccc3c2c1 (stereo not given)
RESULT: -16.2
